Just for reference, patent US4338314A is where these values come from.

Reported LD50 at 168 h values for a set of compounds
- ASSAY SUMMARY: Acute 7-day toxicity after a single application per os (LD50)
- MEASUREMENT CONTEXT: mouse, in vivo; single oral dose, unfed white NMRI mice, 7 days

COMPOUND | LD50 at 168 h
Clc1ccc2c(c1)C(c1ccccc1)=NCC1COCCN21 (centres unmarked) [A] | 2260 mg/kg
Fc1ccc2c(c1)C(c1ccccc1)=NCC1COCCN21 (centres unmarked) [B] | > 1370 mg/kg
Clc1ccc2c(c1)C(c1ccccc1)=NCC1CN(CCc3ccccc3)CCN21 (centres unmarked) [K] | > 1310 mg/kg
COc1ccc2c(c1)N1CCOCC1CN=C2c1ccccc1 (centres unmarked) [F] | > 1430 mg/kg
Cc1cc2c(cc1Cl)N1CCOCC1CN=C2c1ccccc1 (centres unmarked) [G] | > 1520 mg/kg
Clc1ccc2c(c1)C(c1ccccc1)=NCC1CSCCN21 (centres unmarked) [H] | > 1470 mg/kg
Cc1ccc2c(c1)C(c1ccccc1)=NCC1CN(C)CCN21 (centres unmarked) [L] | > 1010 mg/kg
Clc1ccc2c(c1)C(c1ccccc1Cl)=NCC1COCCN21 (centres unmarked) [E] | > 1470 mg/kg
Cc1ccc2c(c1)N1CCOCC1CN=C2c1ccccc1 (centres unmarked) [D] | > 1470 mg/kg
Cc1ccc2c(c1)C(c1ccccc1)=NCC1COCCN21 (centres unmarked) [C] | > 1430 mg/kg
C=CCN1CCN2c3ccc(Cl)cc3C(c3ccccc3)=NCC2C1 (centres unmarked) [I] | 1090 mg/kg

----------
- Test system: central nervous system (hexobarbital sleep time)
- ASSAY SUMMARY: Central nervous depressant properties (prolonging the hexobarbital sleep time)
- Type: in vivo
- MEASUREMENT CONTEXT: Mus musculus, 0.5 h; oral, mice, 30 minutes before 64 mg/kg hexobarbital; half of animals extend sleep by factor of 4; read-out: Prolonging hexobarbitol sleep time (ED50)
Reported ED50 values for a set of compounds
PROPERTY NAME: ED50 (mg/kg)

COMPOUND | RESULT VALUE
Cc1ccc2c(c1)N1CCOCC1CN=C2c1ccccc1 (stereo not drawn) | 138
Fc1ccc2c(c1)C(c1ccccc1)=NCC1COCCN21 (stereo not drawn) | 80.3
Clc1ccc2c(c1)C(c1ccccc1)=NCC1CN(CCc3ccccc3)CCN21 (stereo not drawn) | 110
CN1C(=O)CN=C(c2ccccc2)c2cc(Cl)ccc21 | 1.5
Clc1ccc2c(c1)C(c1ccccc1Cl)=NCC1COCCN21 (stereo not drawn) | 11.8
Cc1ccc2c(c1)C(c1ccccc1)=NCC1COCCN21 (stereo not drawn) | 139
COc1ccc2c(c1)N1CCOCC1CN=C2c1ccccc1 (stereo not drawn) | 202
Cc1ccc2c(c1)C(c1ccccc1)=NCC1CN(C)CCN21 (stereo not drawn) | 164
C=CCN1CCN2c3ccc(Cl)cc3C(c3ccccc3)=NCC2C1 (stereo not drawn) | 100
Clc1ccc2c(c1)C(c1ccccc1)=NCC1COCCN21 (stereo not drawn) | 31.6
Clc1ccc2c(c1)C(c1ccccc1)=NCC1CSCCN21 (stereo not drawn) | 153
Cc1cc2c(cc1Cl)N1CCOCC1CN=C2c1ccccc1 (stereo not drawn) | 119
